Listed next: entries and their corresponding solubility.
Assay: Solubility test (UV-vis calibration curves, maximum solubility)
Study Conditions: 0.5 M TBATFSI in MeCN, organic solvent or mixture, thermodynamic from solid, maximum solubility in electrolyte solution, 0.5 M TBATFSI/MeCN
Answer by giving the amount and then stating its unit.

* C[n+]1ccc(-c2nc3ccccc3s2)cc1 | 470 mM

Could you now consider this next compound?
The reported value for "C[N+](C)(C)CCC[n+]1ccc(-c2nc3ccccc3s2)cc1" in terms of solubility is 340 mM

====

Listed next: entries and their corresponding Formal potential (E^o′).
Assay: Cyclic voltammetry (CV) in three-electrode cells
Format: physicochemical
Study Conditions: 1st redox event (or the only value given); 10 mM in 0.1 M TBABF4/MeCN

Past entries and their recorded results:
• CCCCCCCCCC[n+]1ccc(-c2nc3ccccc3s2)cc1 = 1st = −1.24 V vs. Fc/Fc^+
• Cc1cc(-c2nc3ccccc3s2)cc(C)[n+]1C = 1st = −1.33 V vs. Fc/Fc^+
• Cn1c(-c2cc[n+](C)cc2)nc2ccccc21 = −1.41 V vs. Fc/Fc^+

The reported value for "CCCCCC[n+]1ccc(-c2nc3ccccc3s2)cc1" in terms of Formal potential (E^o′) is 1st = −1.36 V vs. Fc/Fc^+

The reported value for "C[n+]1ccc(-c2nc3ccccc3o2)cc1" in terms of Formal potential (E^o′) is 1st = −1.15 V vs. Fc/Fc^+

The reported value for "COCC[n+]1ccc(-c2nc3ccccc3s2)cc1" in terms of Formal potential (E^o′) is 1st = −1.24 V vs. Fc/Fc^+
